Molecular target: T1, LuxR (Vibrio harveyi, UniProt P21308 1-205)
T1 sequence: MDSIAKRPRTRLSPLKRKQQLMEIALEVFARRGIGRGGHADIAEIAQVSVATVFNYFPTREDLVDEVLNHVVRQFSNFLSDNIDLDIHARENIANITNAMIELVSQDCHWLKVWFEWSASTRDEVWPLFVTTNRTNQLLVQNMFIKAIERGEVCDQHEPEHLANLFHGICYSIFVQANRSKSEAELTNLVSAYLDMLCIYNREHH
Experiment: fluorescence anisotropy
Quantity: Kd (nM)
// return numeric value only (unit: nM, not printed)

Ask: Quickly give me recorded Kd for Negative control (dsDNA) DNA 1: ACTGACTGACTGACTGACTGACTGACTGACT DNA 2: AGTCAGTCAGTCAGTCAGTCAGTCAGTCAGT
Result: 136

Provenance of the data: paper PMC2628434
